# system under test: T1, ARHGAP21, Q5T5U3
# T1 sequence (Q5T5U3 45-169, limits assumed, looked up): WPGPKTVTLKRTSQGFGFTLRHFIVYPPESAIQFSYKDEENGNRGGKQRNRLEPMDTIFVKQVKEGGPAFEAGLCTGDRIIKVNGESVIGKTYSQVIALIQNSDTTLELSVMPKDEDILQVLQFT
# assay summary: holdup assay
# Design: key: below the threshold = too weak to quantify, mostly under pKd 3.1 to 4
# condition: plain residues with an end cap or a label only (N-terminal biotin on a linker: ttds)
endpoint name: pKd

Use these answered entries as a reference point.
IYVPEAQTRL [DLGAP4, Q9Y2H0] : below the threshold
PKTPPTDTSV [KIR3DL3, Q8N743] : 3.61
TVASEKESVM [SLC1A5, Q15758] : below the threshold
IDNDTESTAL [ARHGAP17, Q68EM7] : below the threshold
STLTIFETAL [ABCC4, O15439] : 4.53
RSLEEEESQL [GRASP, Q7Z6J2] : 3.83
QSARYRDTEL [TJP2, Q9UDY2] : 4.48
GQDSREETQL [KCNT2, Q6UVM3] : 3.68
VLRLQSETSV [VANGL1, Q8TAA9] : below the threshold
ERKLSSESQV [LRP4, O75096] : below the threshold

Field request: pKd | item: SRPQRTQTQV [HPV67-E6, A4U7F2]
below the threshold

Same question, SVWLRKETRV [CYSLTR2, Q9NS75] this time
below the threshold

Repeat for the following binder: SSRTRRETQL [HPV16-E6, P03126]
below the threshold
